- Test system: Kanzawa spider mite (Tetranychus kanzawai kishida) which had acquired a strong resistance to chlorfenapyr
- Run Description: Miticidal effect against female imagines of chlorfenapyr-resistant Kanzawa spider mite, leaf disk spray test
- Format: in vivo
- Study Conditions: single test compound; female imago, chlorfenapyr-resistant strain; mortality two days after spray treatment, 25±1° C.; probit analysis
Value Kind: log10 of LC50 (log10 of the value in ppm)
Please interpret these as log10 of LC50 where LC50 is in ppm.

Consider the worked cases shown below.
> print(dat)
                                   molecule     value.kind  data.value
1  CC(C)OP(=O)(OC(C)C)SCc1ccccc1 [IBP, O,O-Diisopropyl-S-benzylthiophosphate]  log10 of LC50        3.11
2             CCOP(=S)(OCC)SCSP(=S)(OCC)OCC  log10 of LC50        3.49
3          CCOP(=S)(OCC)Oc1nc(Cl)c(Cl)cc1Cl  log10 of LC50        3.51
4  CCOC(=O)CC(SP(=S)(OC)OC)C(=O)OCC (stereo not drawn) [Malathon, Dimethyldicarbethoxyethyldithiophosphate]  log10 of LC50        3.53

Per the records, this molecule ( `CCOP(=S)(OCC)Oc1ccc(=O)n(-c2ccccc2)n1` ) has log10 of LC50 equal to 3.28

Per the records, this molecule ( `COP(=S)(OC)Oc1ccc([N+](=O)[O-])c(C)c1` ) has log10 of LC50 equal to 3.51

Per the records, this molecule ( `CCOCn1c(-c2ccc(Cl)cc2)c(C#N)c(Br)c1C(F)(F)F` ) has log10 of LC50 equal to 3.18

Per the records, this molecule ( CCOC(=O)C(SP(=S)(OC)OC)c1ccccc1 (stereo not drawn) ) has log10 of LC50 equal to 3.30

The origin of these recorded values is patent US6649646B2.
